Test system: BRCA-1 silenced HeLa cells (HeLa shBRCA1-GFP)
Experiment: Proliferation assay in BRCA-1 silenced HeLa cells
Assay type: cell-based
Conditions: Homo sapiens; BRCA1 silenced HeLa cells, 168 hours; read-out: CC50 in the BRCA1 silenced HeLa cells
Structures can show the parent of a compound that is named as a salt.
Each record here notes measured CC50.

Recorded CC50, per entry:
compound	recorded-result
Cc1nc(C)c(N2CCN(C(=O)c3cc(Cc4n[nH]c(=O)c(C)c4C)ccc3F)CC2=O)s1 [Example 117, trifluoroacetate]	50 to 500 nM
O=C(c1cc(Cc2cc(C(F)(F)F)c(=O)[nH]n2)ccc1F)N1CC(=O)N2CCCC[C@H]2C1 (single isomer, unassigned) [92 (ZZ1)]	< 5000 nM
Cc1c(Cc2ccc(F)c(C(=O)N3CC(=O)N(c4ccc(Cl)cc4)[C@H](C)C3)c2)n[nH]c(=O)c1C	< 50 nM
Cc1c(Cc2ccc(F)c(C(=O)N3CC(=O)N(c4ccc(F)c(Cl)c4)[C@H](C)C3)c2)n[nH]c(=O)c1C	< 50 nM
CC[C@@H]1CN(C(=O)c2cc(Cc3n[nH]c(=O)c(C)c3C)ccc2F)CC(=O)N1C1CCC1	< 5000 nM
Cc1c(Cc2ccc(F)c(C(=O)N3CC(=O)N(c4ccc(C#N)cc4F)[C@H](C)C3)c2)n[nH]c(=O)c1C	< 50 nM
Cc1c(Cc2ccc(F)c(C(=O)N3CC(=O)N4CCCCC4C3)c2)n[nH]c(=O)c1C (stereo not shown) [Example 32, trifluoroacetate]	< 50 nM
Cc1c(Cc2ccc(F)c(C(=O)N3CC(=O)N(C4CCC(C)(C)CC4)C(C)C3)c2)n[nH]c(=O)c1C (stereo not shown) [Example 128, trifluoroacetate]	< 50 nM
Cc1c(Cc2ccc(F)c(C(=O)N3CC(=O)N4CCCC[C@@H]4C3)c2)n[nH]c(=O)c1C [Example 90, trifluoroacetate]	< 50 nM

API: the following record is the query input.
## Input Annotate the compound Cc1c(Cc2ccc(F)c(C(=O)N3CCN(C(C)C4CC4)C(=O)C3)c2)n[nH]c(=O)c1C (stereo not shown) with its measured CC50.
## Output 50 to 500 nM

====

System: BRCA-1 silenced HeLa cells (HeLa shBRCA1-GFP)
Test: Proliferation assay in BRCA-1 silenced HeLa cells
Format: cell-based
Settings: Homo sapiens; BRCA1 silenced HeLa cells, 168 hours; read-out: CC50 in the BRCA1 silenced HeLa cells
Where a name gives a salt, the structure may show the parent alone.
Each record here notes measured CC50.

compound	CC50
Cc1c(Cc2ccc(F)c(C(=O)N3CC(=O)N(c4cccc(Cl)c4)[C@H](C)C3)c2)n[nH]c(=O)c1C	< 0.05 µM
Cc1c(Cc2ccc(F)c(C(=O)N3CCN(C(c4ccccc4)C(F)F)C(=O)C3)c2)n[nH]c(=O)c1C (stereo not shown) [Example 46, trifluoroacetate]	< 0.05 µM
COCCN1CCN(C(=O)c2cc(Cc3n[nH]c(=O)c(C)c3C)ccc2F)CC1=O	< 5 µM

## Input Annotate the compound "Cc1c(Cc2ccc(F)c(C(=O)N3CC(=O)N(c4ccc(Cl)c(F)c4)[C@H](C)C3)c2)n[nH]c(=O)c1C" with its measured CC50.
## Output < 0.05 µM

## Input Annotate the compound CCc1cc(Cc2ccc(F)c(C(=O)N3CCN(CC(F)(F)F)C(=O)C3)c2)n[nH]c1=O [Example 134, trifluoroacetate] with its measured CC50.
## Output < 5 µM

## Input Annotate the compound "Cc1c(Cc2ccc(F)c(C(=O)N3CC(=O)N(c4cccs4)[C@H](C)C3)c2)n[nH]c(=O)c1C" with its measured CC50.
## Output < 0.05 µM

## Input Annotate the compound "Cc1c(Cc2ccc(F)c(C(=O)N3CCN(c4cnc5ccccc5c4)C(=O)C3)c2)n[nH]c(=O)c1C" with its measured CC50.
## Output < 0.05 µM

## Input Annotate the compound Cc1c(Cc2ccc(F)c(C(=O)N3CC(=O)N(C4CCCCC4)C(C)C3)c2)n[nH]c(=O)c1C (stereo not shown) [Example 125, trifluoroacetate] with its measured CC50.
## Output < 0.05 µM

## Input Annotate the compound "C[C@H]1CN(C(=O)c2cc(Cc3cc(C(F)(F)F)c(=O)[nH]n3)ccc2F)CC(=O)N1C1CCCC1" with its measured CC50.
## Output < 5 µM

## Input Annotate the compound "COC[C@@H](C)N1CCN(C(=O)c2cc(Cc3n[nH]c(=O)c(C)c3C)ccc2F)CC1=O" with its measured CC50.
## Output < 5 µM

## Input Annotate the compound Cc1c(Cc2ccc(F)c(C(=O)N3CCN([C@@H](C)c4ccccc4)C(=O)C3)c2)n[nH]c(=O)c1C [Example 122, trifluoroacetate] with its measured CC50.
## Output 0.05 to 0.5 µM

## Input Annotate the compound "O=C(c1cc(Cc2cc(C(F)(F)F)c(=O)[nH]n2)ccc1F)N1CCN([C@H]2CCCOC2)C(=O)C1" with its measured CC50.
## Output 0.05 to 0.5 µM

## Input Annotate the compound Cc1c(Cc2ccc(F)c(C(=O)N3CC(=O)N4CCCC[C@H]4C3)c2)n[nH]c(=O)c1C [Example 89, trifluoroacetate] with its measured CC50.
## Output < 5 µM

## Input Annotate the compound Cc1c(Cc2ccc(F)c(C(=O)N3CCN(C4CCOC(C)(C)C4)C(=O)C3)c2)n[nH]c(=O)c1C (stereo not shown) [Example 76, trifluoroacetate] with its measured CC50.
## Output < 5 µM

## Input Annotate the compound Cc1c(Cc2ccc(F)c(C(=O)N3CC(=O)N(C4CC(F)(F)C4)C(C)C3)c2)n[nH]c(=O)c1C (stereo not shown) with its measured CC50.
## Output < 0.05 µM

## Input Annotate the compound C[C@@H]1CCC[C@H]2CN(C(=O)c3cc(Cc4cc(C(F)(F)F)c(=O)[nH]n4)ccc3F)CC(=O)N21 (racemic) [Example 87, trifluoroacetate] with its measured CC50.
## Output < 0.05 µM
